Test system: Hepatotoxicity; also: reference of the scale not given here
experiment.notes: FDA HLAED, gamma-glutamyl transferase (GGT) increase
reported.conditions: human
Entries and their GGT Increase - Index Value values follow.
endpoint: GGT Increase - Index Value

>>> print(df.to_string())
                                    molecule                    endpoint  value_measured
 0  CC(C)N1CCN(c2ccc(OCC3COC(Cn4cncn4)(c4ccc(Cl)cc4Cl)O3)cc2)CC1 (stereo unspecified)  GGT Increase - Index Value               0
 1       CC(=O)CCCCn1c(=O)c2c(ncn2C)n(C)c1=O  GGT Increase - Index Value               0
 2              NCCCC(O)(P(=O)(O)O)P(=O)(O)O  GGT Increase - Index Value             0.8
 3  CC1(C)S[C@@H]2[C@H](NC(=O)C3(N)CCCCC3)C(=O)N2[C@H]1C(=O)O  GGT Increase - Index Value               0
 4  CCCC(=O)Nc1ccc(OCC(O)CNC(C)C)c(C(C)=O)c1 (stereo unspecified)  GGT Increase - Index Value               0
 5  CC1=C(CC(=O)O)c2cc(F)ccc2/C1=C\c1ccc([S+](C)[O-])cc1 (stereo unspecified)  GGT Increase - Index Value               0
 6  CCC(=O)O[C@H]1CC[C@H]2[C@@H]3CCC4=CC(=O)CC[C@]4(C)[C@H]3CC[C@]12C [TESTOSTERONE PROPIONATE]  GGT Increase - Index Value             4.8
 7  CC1=C(/C=C/C(C)=C/C=C/C(C)=C/C(=O)O)C(C)(C)CCC1  GGT Increase - Index Value               1
 8              C[C@](N)(Cc1ccc(O)cc1)C(=O)O  GGT Increase - Index Value               0
 9  CC(C)NCC(O)COc1cccc2[nH]ccc12 (stereo unspecified)  GGT Increase - Index Value               0
10  O=P1(NCCCl)OCCCN1CCCl (stereo unspecified) [IFOSFAMIDE]  GGT Increase - Index Value               0
11                 C#CCN(C)[C@H](C)Cc1ccccc1  GGT Increase - Index Value             1.8
12  CCCCNc1cc(C(=O)O)cc(S(N)(=O)=O)c1Oc1ccccc1 [BUMETANIDE]  GGT Increase - Index Value               0
13  Fc1ccccc1C1=NCC(=S)N(CC(F)(F)F)c2ccc(Cl)cc21  GGT Increase - Index Value               0
14  CC(C)(C#N)c1cc(Cn2cncn2)cc(C(C)(C)C#N)c1  GGT Increase - Index Value               0
15  O=C1C(O)=C([C@H]2CC[C@H](c3ccc(Cl)cc3)CC2)C(=O)c2ccccc21  GGT Increase - Index Value               0
16  C[C@@H]1CN([C@H]2CC[C@](C#N)(c3ccc(F)cc3)CC2)CC[C@]1(C(=O)O)c1ccccc1  GGT Increase - Index Value               0
17  CC(N)C12CC3CC(CC(C3)C1)C2 (stereo unspecified)  GGT Increase - Index Value               0
18  CC(C)(C)NC(=O)[C@@H]1C[C@@H]2CCCC[C@@H]2CN1C[C@@H](O)[C@H](Cc1ccccc1)NC(=O)[C@H](CC(N)=O)NC(=O)c1ccc2ccccc2n1  GGT Increase - Index Value               0
19  O=C1CC2(CCCC2)CC(=O)N1CCCCN1CCN(c2ncccn2)CC1  GGT Increase - Index Value             0.6
20  CC(=O)Oc1c(C)cc(OCC(O)CNC(C)C)c(C)c1C (stereo unspecified)  GGT Increase - Index Value               0
21  CCCCCCCCCCC(=O)O[C@H]1CC[C@H]2[C@@H]3CCc4cc(O)ccc4[C@H]3CC[C@]12C [ESTRADIOL UNDECYLATE]  GGT Increase - Index Value             0.3
22           Cc1ccnc2c1NC(=O)c1cccnc1N2C1CC1  GGT Increase - Index Value            41.2
23  CC(=O)[C@]1(O)Cc2c(O)c3c(c(O)c2[C@@H](O[C@H]2C[C@H](N)[C@H](O)[C@H](C)O2)C1)C(=O)c1ccccc1C3=O  GGT Increase - Index Value               0
24  CCCCCCC(C)(C)c1cc(O)c2c(c1)OC(C)(C)C1CCC(=O)CC21 (stereo unspecified)  GGT Increase - Index Value               0
25  CO[C@@]1(NC(=O)Cc2cccs2)C(=O)N2C(C(=O)O)=C(COC(N)=O)CS[C@@H]21  GGT Increase - Index Value               0
26  CCOC(=O)Nc1ccc2c(c1)N(C(=O)CCN1CCOCC1)c1ccccc1S2  GGT Increase - Index Value               0
27  O=C1NC(c2ccccc2)(c2ccccc2)C(=O)N1COP(=O)(O)O  GGT Increase - Index Value               0
28  COc1ccc(C(=O)Nc2ccccc2CCC2CCCCN2C)cc1 (stereo unspecified) [ENCAINIDE]  GGT Increase - Index Value               0
29  Clc1ccc(CO/N=C(\Cn2ccnc2)c2ccc(Cl)cc2Cl)c(Cl)c1  GGT Increase - Index Value               0
30  CC(C)(C)NC(=O)[C@H]1CC[C@H]2[C@@H]3CC[C@H]4NC(=O)C=C[C@]4(C)[C@H]3CC[C@]12C [FINASTERIDE]  GGT Increase - Index Value               1
31  N[C@@H](C(=O)N[C@@H]1C(=O)N2C(C(=O)O)=C(Cl)CS[C@H]12)c1ccccc1 [CEFACLOR ANHYDROUS]  GGT Increase - Index Value               0
32     O=C(O)CCc1nc(-c2ccccc2)c(-c2ccccc2)o1  GGT Increase - Index Value             0.4
33             Nc1nnc(-c2cccc(Cl)c2Cl)c(N)n1  GGT Increase - Index Value               2
34  O=C(NCC(O)CO)c1c(I)c(C(=O)NCC(O)CO)c(I)c(N(CCO)C(=O)CO)c1I (stereo unspecified)  GGT Increase - Index Value               0
35  CN(N=O)C(=O)N[C@@H](C=O)[C@@H](O)[C@H](O)[C@H](O)CO  GGT Increase - Index Value               0
